Each entry below carries its recorded IC50.
Target system: recombinant human KLK5 (Homo sapiens)
Assay protocol: Kallikrein (KLK) 5 enzymatic assay (Boc-VPR-AMC fluorogenic substrate)
Condition details: recombinant human KLK5 0.1 μg/well, Boc-VPR-AMC 100 μM, pH 7.5, room temperature, 1% DMSO; tested a minimum of three times
Property measured: IC50

                                   compound  property_measured   result
0  CC(C)n1nc(COc2ccccc2CC(=O)O)c2cc(-c3cccc(-c4cn[nH]c4)c3)ccc21 [Compound 85c]               IC50  > 10 µM
1  Nc1nccc2c(-c3ccc4c(c3)[C@H](Oc3ccccc3CC(=O)O)CC43CCN(CC(=O)O)CC3)cccc12 [Compound 415b]               IC50   < 1 µM
2  Nc1nccc2c(-c3ccc4c(c3)c(COc3ccccc3CC(=O)O)nn4C3CCOCC3)cccc12 [Compound 282b]               IC50   < 1 µM
3  Nc1nccc2ccc(-c3ccc4c(c3)c(COc3ccccc3CC(=O)O)nn4C3CC4(CCC4)C3)cc12 [Compound 112e]               IC50   < 1 µM

* * *

Target system: recombinant human KLK5 (Homo sapiens, UniProt Q9Y337)
Sequence (Q9Y337 23-293): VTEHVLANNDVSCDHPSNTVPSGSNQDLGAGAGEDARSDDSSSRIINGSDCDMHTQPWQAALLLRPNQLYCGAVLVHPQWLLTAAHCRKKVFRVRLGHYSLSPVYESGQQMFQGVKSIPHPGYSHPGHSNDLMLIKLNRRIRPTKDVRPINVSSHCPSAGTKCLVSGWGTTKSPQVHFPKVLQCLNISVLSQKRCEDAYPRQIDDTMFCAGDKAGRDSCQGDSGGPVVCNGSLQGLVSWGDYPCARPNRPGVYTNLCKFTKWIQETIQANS
Assay protocol: Kallikrein (KLK) 5 enzymatic assay (Boc-VPR-AMC fluorogenic substrate)
Condition details: recombinant human KLK5 0.1 μg/well, Boc-VPR-AMC 100 μM, pH 7.5, room temperature, 1% DMSO; tested a minimum of three times
pIC50: −log10 of the molar value.
Property measured: pIC50

>>> print(df.to_string())
                                    compound  property_measured        result
 0  CCOC(=O)N1CC[C@H](n2nc(COc3cccc(C)c3CC(=O)O)c3cc(-c4ccc5ccnc(N)c5c4)ccc32)C1 [Compound 343i]              pIC50        > 6.00
 1  Nc1nccc2ccc(-c3cnc4c(c3)c(COc3ccccc3CC(=O)O)nn4C3CCC3)cc12 [Compound 197j]              pIC50        > 6.00
 2  CCc1cccc(OCc2nn(C3CCC3)c3ccc(-c4cccc5c(N)nccc45)cc23)c1CC(=O)O [Compound 181b]              pIC50        > 6.00
 3  COc1cc(-c2cccc3c(N)nccc23)cc2c(COc3ccccc3CC(=O)O)coc12 [Compound 235b]              pIC50  5.00 to 6.00
 4  Nc1nccc2c(-c3ccc4c(c3)c(COc3ccccc3CC(=O)O)nn4C3CCOC3)cccc12 (stereo not drawn) [Compound 249b]              pIC50        > 6.00
 5  CCn1nc(COc2ccccc2CC(=O)O)c2cc(-c3cccc4c(N)nccc34)ccc21 [Compound 178f]              pIC50        > 6.00
 6  N#Cc1cccc(CC(=O)O)c1OCc1nn(C2CCC2)c2ccc(-c3cccc4c(N)nccc34)cc12 [Compound 175b]              pIC50  5.00 to 6.00
 7  CC(C)CCN1CCC(n2nc3ccc(-c4cccc5c(N)nccc45)cc3c2COc2ccccc2CC(=O)O)CC1 [Compound 132b]              pIC50        > 6.00
 8  Cc1cccc(OCc2cn(C3CCOC3)c3ncc(-c4cccc5c(N)nccc45)cc23)c1CC(=O)O (stereo not drawn) [Compound 294c]              pIC50        > 6.00
 9  N#Cc1cccc(CC(=O)O)c1O[C@@H]1CCc2ccc(-c3cccc4c(N)nccc34)cc21 [Compound 430b]              pIC50  5.00 to 6.00
10  Nc1nccc2c(-c3cc(F)c4c(c3)C(Oc3ccccc3CC(=O)O)CC4)cccc12 (stereo not drawn) [Compound 208b]              pIC50        > 6.00
11  COc1ccc(CC(=O)O)c(OCc2c3cc(-c4ccc5ccnc(N)c5c4)ccc3nn2C2CCC2)c1 [Compound 20b]              pIC50  5.00 to 6.00
12  N=C(N)c1cccc(-c2cc(OCc3ccccn3)c3occ(COc4ccccc4CC(=O)O)c3c2)c1 [Compound 227i]              pIC50        > 6.00
13  CC(C)n1nc(COc2ccccc2CC(=O)O)c2cc(-c3ccc4nc(N)oc4c3)ccc21 [Compound 105c]              pIC50        < 5.00
14  CC(C)(C)OC(=O)N1CC(n2nc3ccc(-c4cccc5c(N)nccc45)cc3c2COc2ccccc2CC(=O)O)C1 [Compound 125b]              pIC50        > 6.00
